// data source = PubChem BioAssay (NCI)

Test system: SK-OV-3 ovarian
test.protocol: NCI-60 one-dose screen, 48 h
setup.conditions: 10 µM unless noted
Protocol: Growth inhibition of the SK-OV-3 human tumor cell line is measured as a screen for anti-cancer activity. Cells are grown in 96 well plates and exposed to the test compound for 48 hours. Compounds are tested at a single concentration, which is 10^-5 M for most compounds. The reported endpoint is percent growth (GI% or GIPRCNT), where numbers from 0 - 100% represent growth inhibition, and numbers from -100% - 0 represent cell death. For example, a value of 40 represents 60% growth inhibition. […]
About 83,000 compounds went through this panel and 20% of them were active in at least one assay; those are over-represented in the sample as a whole. The source made the active and inactive calls. Rule for the calls: active = growth percent below 10; inactive = the rest.
Assign a class; possible classes are t = active, f = inactive

Request: Hey, what did the test say about FCc1ncc(-c2ccc(C(F)(F)F)cc2)c(NC2CCCCCC2)n1 ?
Response: f

Request: Now consider COc1ccc2c(c1)[n+](=O)c(/C=C/C(=O)c1cc(OC)c(OC)c(OC)c1)c(C)n2[O-] and answer again.
Response: f

Request: Next molecule up: CC(C)CNc1nc(N=[N+]=[N-])nc(NCC(C)C)n1
Response: f

Request: Moving on to Nc1ccn(C2O[C@H](CO)[C@@H](O)[C@@H]2O)c(=O)n1 (some centres undefined)
Response: f

Request: And the next one, NC(=O)NS(=O)(=O)c1ccc(N2N=C(C(F)(F)F)CC2c2cc(C(F)(F)F)cc(C(F)(F)F)c2)cc1 (centres undefined) ?
Response: f

Request: For CCOC(=O)CCC(=O)O[C@H]1[C@H](O[C@@H]2[C@@H](C)[C@H](O[C@H]3C[C@@](C)(OC)[C@@H](O)[C@H](C)O3)[C@@H](C)C(=O)O[C@H](CC)[C@@](C)(O)[C@H](O)[C@@H](C)C(=O)[C@H](C)C[C@@]2(C)O)O[C@H](C)C[C@@H]1N(C)C then?
Response: f

Request: Repeat with CC(=O)O[C@H]1CC[C@@]2(C)C(=CC[C@@H]3[C@@H]2CC[C@]2(C)C(c4cccnc4)=CC[C@@H]32)C1
Response: f

Request: Now consider COc1ccc([N+](=O)[O-])c(S(=O)(=O)c2ccc(Cl)cc2)n1 and answer again.
Response: f

Request: Follow-up entry: O=C1CSC(c2ccccc2Cl)N1c1nnc(Cn2nnc3ccccc32)o1 (centres undefined)
Response: f

Request: Here is the next molecule: CCCCCN(CCCCC)CCCNc1c2c(nc3ccc(Cl)cc13)CCCC2
Response: f

Request: Next record, please: COc1ccc2cc(C3=CC(=O)CCC3)ccc2c1
Response: f

Request: One more molecule: COc1ccc(OC)c2c1CCC1(C2)NC(=O)NC1=O (centres undefined)
Response: f

Request: Next up: COc1ccc(CCN2C(=O)CCC3=C2CCCC3=O)cc1OC
Response: f

Request: Entry to check: COc1cc(/C=C/C(=O)c2c(C)n([O-])c3ccccc3[n+]2=O)cc(OC)c1OC
Response: f

Request: Now the same for CC(C)N(Cc1ccccc1)c1c(Cl)ssc1=O
Response: f

Request: Query COc1cccc(C=Nc2cc(C(C)C)c(O)cc2C)c1O next
Response: f

Request: And O=C(Nc1ccccc1S)c1ccccc1 ?
Response: f

Request: How about this molecule: Cc1ccc(C(=O)Cc2ccccc2)c(O)c1
Response: f

Request: Record: CCOC(=O)Nc1cc(-c2ccc(C)c(NS(C)(=O)=O)c2)nn2c(C)nnc12
Response: t

Request: Now consider Oc1ccc(/C=N/Nc2nc3ccccc3s2)c(O)c1 and answer again.
Response: t

Request: What do you have for O=C1C(=O)/C(=C/c2ccccc2)CCCCCC/C1=C/c1ccccc1 ?
Response: f

Request: Also check O=CNc1ccc2c(c1)Cc1cc([N+](=O)[O-])ccc1-2
Response: f

Request: Also, Cc1ccc(S(=O)(=O)N2CCN(C(=O)CSc3nc4ccc(C)cc4[nH]3)CC2)cc1 please.
Response: f
